System: ANGPTL3 gene
test_description: ANGPTL3 gRNA/SpCas9 editing in primary human hepatocytes (Table 3)
Type: cell-based
Method: In set of experiments, PCSK9 gRNAs were co-transfected with an equivalent amount (1:1 ratio by weight) of in vitro transcribed commercially available SpCas9 mRNA MS002 purchased from TriLink Biotechnologies into primary human hepatocytes at 2500, 500, or 100 ng/RNA/mL and processed as described in detailed methods. Extracted genomic DNA was analyzed for gene editing at the target site with next-generation sequencing of PCR amplicons generated around the target sites. […]
Catalogue of Human Primary Hepatocyte Editing % 500 ng/mL values
Answer with a number only, understood to be in %.

GA143: ANGPTL3 gRNA; protospacer TTAATTCAACATCGAATAGA (SEQ ID NO: 141) (nucleic acid, 2'-O-methyl at 1, 2, other sugars, backbone and T or U not given here; further chemistry not fully specified) guide: UUAATTCAACATCGAATAGAGTTTTAGAGCTAGAAATAGCAAGTTAAAATAAGGCTAGTCCGTTATCAACTTGAAAAAGTGGCACCGAGTCGGTGCTTTT ... 19.36
GA148: ANGPTL3 gRNA; protospacer ACAAAACTTCAATGAAACGT (SEQ ID NO: 146) (nucleic acid, 2'-O-methyl at 1, 2, other sugars and backbone not given here; further chemistry not fully specified) guide: ACAAAACTTCAATGAAACGTGTTTTAGAGCTAGAAATAGCAAGTTAAAATAAGGCTAGTCCGTTATCAACTTGAAAAAGTGGCACCGAGTCGGTGCTTTT ... 31.67

Reported Human Primary Hepatocyte Editing % 500 ng/mL of GA126: ANGPTL3 gRNA; protospacer GGAGTAGTTCTTGGTGCTCT (SEQ ID NO: 124) (nucleic acid, 2'-O-methyl at 1, 2, other sugars and backbone not given here; further chemistry not fully specified) guide: GGAGTAGTTCTTGGTGCTCTGTTTTAGAGCTAGAAATAGCAAGTTAAAATAAGGCTAGTCCGTTATCAACTTGAAAAAGTGGCACCGAGTCGGTGCTTTT : 15.21
